# targetOrSystem: Aldo-keto reductase family 1 member B1 (Rattus norvegicus) (UniProt P07943)
# measurementProtocol: Inhibition of rat kidney NADPH-dependent aldose reductase assessed as DL-glyceraldehyde conversion to glycerol at 1 uM preincubated for 20 mins followed by NADPH addition measured after 5 mins by UV-Visible spectrophotometric analysis relative to control
# maps each entry to its inhibition
measurementKind: inhibition

# chemicalSmiles, targetOrSystem, reportedValue
records = [
    ("N#CC(=C\\c1ccc(Br)cc1)/C=C1\\SC(=S)N(c2ccc(C(=O)O)cc2)C1=O", "Aldo-keto reductase family 1 member B1 (Rattus norvegicus) (UniProt P07943)", "< 50%"),
    ("CCc1ccc(/C=C(C#N)/C=C2\\SC(=S)N(CC(=O)O)C2=O)cc1", "Aldo-keto reductase family 1 member B1 (Rattus norvegicus) (UniProt P07943)", "< 50%"),
    ("N#CC(=C\\c1cccc2ccccc12)/C=C1\\SC(=S)N(CC(=O)O)C1=O", "Aldo-keto reductase family 1 member B1 (Rattus norvegicus) (UniProt P07943)", "< 50%"),
    ("CCc1ccc(/C=C(C#N)/C=C2\\SC(=S)NC2=O)cc1", "Aldo-keto reductase family 1 member B1 (Rattus norvegicus) (UniProt P07943)", "< 50%"),
    ("CC(C)c1ccc(/C=C(C#N)/C=C2\\SC(=S)N(CC(=O)O)C2=O)cc1", "Aldo-keto reductase family 1 member B1 (Rattus norvegicus) (UniProt P07943)", "< 50%"),
    ("N#CC(=C\\c1ccc(Br)cc1)/C=C1\\SC(=S)NC1=O", "Aldo-keto reductase family 1 member B1 (Rattus norvegicus) (UniProt P07943)", "< 50%"),
    ("N#CC(=C\\c1ccc(Cl)cc1)/C=C1\\SC(=S)NC1=O", "Aldo-keto reductase family 1 member B1 (Rattus norvegicus) (UniProt P07943)", "< 50%"),
    ("N#CC(=C\\c1ccco1)/C=C1\\SC(=S)NC1=O", "Aldo-keto reductase family 1 member B1 (Rattus norvegicus) (UniProt P07943)", "< 50%"),
    ("COc1ccc(/C=C(C#N)/C=C2\\SC(=S)N(c3ccc(CC(=O)O)cc3)C2=O)cc1", "Aldo-keto reductase family 1 member B1 (Rattus norvegicus) (UniProt P07943)", "< 50%"),
    ("N#CC(=C\\c1ccc(Cl)cc1)/C=C1\\SC(=S)N(c2ccc(C(=O)O)cc2)C1=O", "Aldo-keto reductase family 1 member B1 (Rattus norvegicus) (UniProt P07943)", "< 50%"),
]
